# target: CYP2C8 (Homo sapiens)
# Construct: evaluated in pooled human liver microsomes (HLM); from tissue; host or cells: pooled human liver microsomes
# Sequence (P10632 1-490): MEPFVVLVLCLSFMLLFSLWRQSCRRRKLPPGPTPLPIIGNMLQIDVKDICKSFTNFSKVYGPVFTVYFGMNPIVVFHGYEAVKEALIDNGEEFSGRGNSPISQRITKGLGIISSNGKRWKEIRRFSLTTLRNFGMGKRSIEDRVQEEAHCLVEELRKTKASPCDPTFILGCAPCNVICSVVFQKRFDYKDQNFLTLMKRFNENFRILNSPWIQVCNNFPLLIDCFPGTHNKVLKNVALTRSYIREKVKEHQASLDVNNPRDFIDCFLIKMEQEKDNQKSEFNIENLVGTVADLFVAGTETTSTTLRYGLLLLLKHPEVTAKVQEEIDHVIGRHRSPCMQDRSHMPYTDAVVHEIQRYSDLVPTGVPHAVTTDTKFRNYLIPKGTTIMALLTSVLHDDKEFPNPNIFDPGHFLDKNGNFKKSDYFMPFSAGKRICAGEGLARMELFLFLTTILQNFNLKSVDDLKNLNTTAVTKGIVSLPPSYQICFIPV
# test-details: Direct and time-dependent CYP2C8 inhibition in pooled human liver microsomes
# Format: in vitro ADME
# conditions: pooled HLM; substrate Amodiaquine 2 μM; read-out: IC50, 30 min Pre-incubation
pIC50: −log10 of the molar value.
attribute-measured: pIC50

[[record]]
compound = "COc1cc(O[C@H]2C(C)(C)[C@H](NC(=O)c3ccc(N4CCC(CN5CCN(c6ccc(C(=O)N[C@H]7CCC(=O)NC7=O)c(F)c6)CC5)CC4)cc3)C2(C)C)ccc1C#N [Compound A]"
target = "CYP2C8 (Homo sapiens)"
measured_value = "< 4.82"


Every entry's value here was drawn from patent US20250009737A1.
